Recorded Ki for molecules tested on Bcl-2-like protein 1 (Homo sapiens, UniProt Q07817), drawn from a number of studies.

Solved cases (10 shown):
• Cc1c(S(C)(=O)=O)c(-c2cc(F)cc(N3CCN(c4ccc(NS(=O)(=O)c5ccc(N[C@H](CCN6CCC(C(=O)O)CC6)CSc6ccccc6)c(S(=O)(=O)C(F)(F)F)c5)cc4)CC3)c2)c(-c2ccc(Cl)cc2)n1C(C)C = 0.135 nM
• COc1c(CN2O[C@@H](CN)[C@@H]([C@H](C)O)[C@H]2C(=O)N[C@H]2C[C@H]3C[C@@H]([C@@H]2C)C3(C)C)cccc1-c1cc(C(=O)NCCc2ccccn2)cc(N(C)C)c1 = > 10000 nM
• O=C(NS(=O)(=O)c1ccc(N[C@@H](CSc2ccccc2)C[C@@H]2CCCN2)c(S(=O)(=O)C(F)(F)F)c1)c1ccc(N2CCC([C@@H](O)c3ccccc3-c3ccc(Cl)cc3)CC2)cc1 = 0.3 nM
• COc1c(CN2O[C@@H](CO)[C@@H]([C@H](C)O)[C@H]2C(=O)N[C@H]2C[C@H]3C[C@@H]([C@@H]2C)C3(C)C)cccc1-c1cc(NCC(C)C)cc(C(=O)N[C@@H](CC(C)C)CN(C)C)c1 = 1000 to 5000 nM
• C[C@@H]1[C@@H](NC(=O)[C@@H]2[C@H]([C@H](C)O)[C@H](CO)ON2Cc2cccc(-c3cc(C(=O)N[C@@H](Cc4ccccc4)CN(C)C)cc(N(C)C)c3)c2OCCN(C)C)C[C@H]2C[C@@H]1C2(C)C = 1000 to 5000 nM
• CN1CCN(Nc2ccc(S(=O)(=O)NC(=O)c3ccc(N4CCN(CC5=C(c6ccc(Cl)cc6)CC(C)(C)CC5)CC4)cc3Oc3cnc4[nH]ccc4c3)cc2[N+](=O)[O-])CC1 = 21 nM
• COc1c(CN2O[C@@H](CO)[C@@H]([C@H](C)O)[C@H]2C(=O)N[C@H]2C[C@H]3C[C@@H]([C@@H]2C)C3(C)C)cccc1-c1cc(C(=O)N[C@H](CN(C)C)[C@@H](NS(C)(=O)=O)c2ccccc2)cc(N(C)CCO)c1 = < 1000 nM
• COc1c(CN2O[C@@H](CN)[C@@H]([C@H](C)O)[C@H]2C(=O)N[C@H]2C[C@H]3C[C@@H]([C@@H]2C)C3(C)C)cccc1-c1cc(C(=O)NCCN(C)C)cc(N(C)C)c1 = 5000 to 10000 nM
• COc1c(CN2O[C@@H](CO)[C@@H]([C@H](C)O)[C@H]2C(=O)N[C@H]2C[C@H]3C[C@@H]([C@@H]2C)C3(C)C)cccc1-c1cc(C(=O)N[C@H](CN2CCCC2)[C@H](O)c2ccccc2)cc(N(C)C)c1 = < 1000 nM
• CNC[C@H](Cc1ccccc1)NC(=O)c1cc(-c2cccc(CN3O[C@@H](CO)[C@@H]([C@H](C)O)[C@H]3C(=O)N[C@H]3C[C@H]4C[C@@H]([C@@H]3C)C4(C)C)c2OC)cc(N(C)C)c1 = < 1000 nM

Ask: // lookup Ki for `COc1c(CN2O[C@@H](CO)[C@@H]([C@H](C)O)[C@H]2C(=O)N[C@H]2C[C@H]3C[C@@H]([C@@H]2C)C3(C)C)cccc1-c1cc(C(=O)N[C@@H](Cc2ccccc2)CN(C)C)cc(N(C)CC(=O)N(C)C)c1`
Reply: < 1000 nM

Ask: Similarly, `COc1c(CN2O[C@@H](CO)[C@@H]([C@H](C)O)[C@H]2C(=O)N[C@H]2C[C@H]3C[C@@H]([C@@H]2C)C3(C)C)cccc1-c1cc(C(=O)N[C@H](CN(C)C)CC(C)(C)C)c(Br)c(N(C)C)c1` ?
Reply: < 1000 nM

Ask: Similarly, `COc1c(CN2O[C@@H](CN)[C@@H]([C@H](C)O)[C@H]2C(=O)N[C@H]2C[C@H]3C[C@@H]([C@@H]2C)C3(C)C)cccc1-c1cc(C(=O)NCCc2ccccc2)cc(N(C)C)c1` ?
Reply: 5000 to 10000 nM

Ask: Similarly, `COc1c(CN2O[C@@H](CO)[C@@H]([C@H](C)O)[C@H]2C(=O)N[C@H]2C[C@H]3C[C@@H]([C@@H]2C)C3(C)C)cccc1-c1cc(C(=O)N[C@@H](CC(C)C)C(N)=O)cc(N(C)C)c1` ?
Reply: < 1000 nM

Ask: Similarly, `COc1c(-c2cc(C(=O)N[C@@H](Cc3ccccc3)CN(C)C)cc(N(C)C)c2)ccc(F)c1CN1O[C@@H](CN)[C@@H]([C@H](C)O)[C@H]1C(=O)N[C@H]1C[C@H]2C[C@@H]([C@@H]1C)C2(C)C` ?
Reply: < 1000 nM

Ask: Similarly, `COc1c(CN2O[C@@H](CO)[C@@H]([C@H](C)O)[C@H]2C(=O)N[C@H]2C[C@H]3C[C@@H]([C@@H]2C)C3(C)C)cccc1-c1cc(C(=O)N[C@@H](Cc2cccc(N)c2)CN(C)C)cc(N(C)C)c1` ?
Reply: < 1000 nM

Ask: Similarly, `COc1c(CN2O[C@@H](CO)[C@@H]([C@H](C)O)[C@H]2C(=O)N[C@H]2C[C@H]3C[C@@H]([C@@H]2C)C3(C)C)cccc1-c1cc(C(=O)N[C@@H](Cc2ccccc2)CN(C)C)cc(N(C)CC(N)=O)c1` ?
Reply: < 1000 nM
